B1: Pistol ribozyme (parent)
chain: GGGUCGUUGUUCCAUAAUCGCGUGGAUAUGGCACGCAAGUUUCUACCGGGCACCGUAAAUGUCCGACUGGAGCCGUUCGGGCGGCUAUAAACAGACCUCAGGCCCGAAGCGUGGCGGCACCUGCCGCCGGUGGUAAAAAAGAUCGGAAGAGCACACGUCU

# Variants of: B1
# method.description: aptazyme ON/OFF ratio, guanine; higher = stronger switching; co-transcriptional cleavage with and without guanine
property.label: aptazyme ON/OFF ratio
Reply with the value as a number alone.

A selection of reference data follows.
{"variant.code": "U7C U8C U10G U11A C12G C13G", "aptazyme ON/OFF ratio": 1.11}
{"variant.code": "U7C U8G G9U U10C U11G C12U", "aptazyme ON/OFF ratio": 1.28}

Short answer for U8G U10G U11C C13U : aptazyme ON/OFF ratio was 1.04

Short answer for U8G U11A C12U : aptazyme ON/OFF ratio was 1.46
